# target of assay: COVID-19 WT Mpro (Severe acute respiratory syndrome coronavirus 2, UniProt P0DTD1)
# Construct: The C-His6-tagged COVID-19 WT Mpro (NC_045512); His6 (C)
# assay method text: biochemical
# conditions: WT Mpro 25 nM, substrate 25 μM, 30 min pre-incubation; several values in a cell = repeat determinations

query smiles: CC(C)(C)[C@H](NC(=O)c1ccc2cc[nH]c2c1)C(=O)N1C[C@H]2[C@@H]([C@H]1C(=O)N[C@H](C#N)C[C@@H]1CCNC1=O)C2(C)C
target of assay: COVID-19 WT Mpro (Severe acute respiratory syndrome coronavirus 2, UniProt P0DTD1)
modifier sign: =
IC50 / µM: 0.121

query smiles: CC(C)(C)[C@H](NC(=O)c1cc2ccccn2n1)C(=O)N1C[C@H]2[C@@H]([C@H]1C(=O)N[C@H](C#N)C[C@@H]1CCNC1=O)C2(C)C
target of assay: COVID-19 WT Mpro (Severe acute respiratory syndrome coronavirus 2, UniProt P0DTD1)
modifier sign: =
IC50 / µM: 9.4

query smiles: CC(C)(C)[C@H](NC(=O)[C@H](NC(=O)c1cnccn1)C1CCCCC1)C(=O)N1C[C@H]2[C@@H]([C@H]1C(=O)N[C@H](C#N)C[C@@H]1CCNC1=O)C2(C)C
target of assay: COVID-19 WT Mpro (Severe acute respiratory syndrome coronavirus 2, UniProt P0DTD1)
modifier sign: >
IC50 / µM: 30
